# Test system: SK-MEL-5 melanoma
# Assay notes: NCI tumour cell line growth inhibition, 48 h
Reported TGI values for the following compounds.

Compound: NNC(=Nc1ccccc1)SCc1ccccc1
Target under test: SK-MEL-5 melanoma
TGI: > 100 µM

For CC(C)(C)OC(=O)NC1CCCC1C(O)(C1=CCCC1)C1=CCCC1 (stereo unspecified) , what is its reported TGI?
> 100 µM

For NC(CCl)=NC1CN2CCC1CC2 (stereo unspecified) , what is its reported TGI?
> 100 µM

For CC1(C)CC(=O)C2=C(C1)NC(SCC(=O)O)=C(C#N)C2c1ccc(Br)cc1 (stereo unspecified) , what is its reported TGI?
> 100 µM

For COc1ccc2c(c1)C1Oc3ccccc3CC1(O)CO2 (stereo unspecified) , what is its reported TGI?
> 100 µM

For OCc1c2c(cc3c1CC1(C3)Cc3cc4c(c(CO)c3C1)CCC4)CCC2 , what is its reported TGI?
17.9 µM
